system: HEK-293T; assay: Multiplex assay against HEK293T; format: toxicity, cell-based; conditions: human, 24 h, 1 µM, compound concentration 1 uM, replicate 2
Tag: True if measured Population Healthy Nuclei (%) is not below 80%, False if it is.

# compound, groupLabel
rows = [
    ("N[C@@]1(C(=O)O)CO[C@H]2[C@H](C(=O)O)[C@H]21", "True"),
    ("CN(C)c1ccnc2sc3c(=O)n(N4CCCCCC4)cnc3c12", "True"),
    ("Cc1nc2ccc(Oc3ccc(F)cc3)cc2c(=O)n1C[C@H]1CCCN(C(C)C)C1.Cl", "False"),
    ("O=S(=O)(c1ccccc1)c1cnc2c(N3CCNCC3)cccc2c1 [INTEPIRDINE]", "True"),
    ("O=C(O)c1cc2ccccc2c(Cc2c(O)c(C(=O)O)cc3ccccc23)c1O", "True"),
    ("CN(C)CCCc1cc(C(=O)Nc2ccc(-c3ccncc3)cc2)ccc1O.Cl.Cl", "True"),
    ("CCCC(CCC)C(=O)O", "True"),
    ("COc1c(C)cc(NC(=O)c2nn(Cc3ccc(F)cc3)c3c2CN(C(=O)c2ccc[nH]2)C[C@]3(C)C(N)=O)cc1C", "True"),
    ("Cc1ccc(F)cc1C(=O)Nc1ccc(C(=O)N2Cc3cccn3Cc3ccccc32)c(Cl)c1", "False"),
]

----------
Let's look at some compounds and their measured Population Fragmented Nuclei (%).
test system: U2OS; assay: Multiplex assay against U2OS; assay type: toxicity, cell-based; conditions: human, 24 h, 1 µM, compound concentration 1 uM, replicate 2

# compound, Population Fragmented Nuclei (%)
data = [
    ("Cc1ccc(C(C)(O)c2nc3ccccc3s2)c(C)c1 (stereo unspecified)", 13),
    ("Cl.Clc1ccc2nsnc2c1NC1=NCCN1 [TIZANIDINE HYDROCHLORIDE]", 15),
    ("O=C(O)Cc1ccccc1Nc1c(Cl)cccc1Cl", 19),
    ("O=C(NCCO)c1cccc(-c2cc(Nc3ccc(OC(F)(F)F)cc3)ncn2)c1", 20),
    ("COc1cc(NC(=O)CCN2CCC(OC(=O)Nc3ccccc3-c3ccccc3)CC2)c(Cl)cc1CNC[C@H](O)c1ccc(O)c2[nH]c(=O)ccc12", 12),
    ("C[C@H]1[C@H]2CC[C@H]3[C@@H]4CC=C5C[C@@H](N(C)C)CC[C@]5(C)[C@H]4CC[C@]23CN1C", 11),
    ("COc1cc(C(=O)N(CCCc2ccccc2)Cc2ccc(CC(=O)O)cc2)cc(OC)c1C", 22),
    ("C[C@@H]1C[C@H]2[C@@H]3CCC4=CC(=O)C=C[C@]4(C)[C@@]3(F)[C@@H](O)C[C@]2(C)[C@@]1(O)C(=O)CO", 18),
    ("c1cc(OCCCN2CCCCC2)ccc1CN1CCCCC1", 21),
    ("Cc1ccc(F)cc1C(=O)Nc1ccc(C(=O)N2Cc3cccn3Cc3ccccc32)c(Cl)c1", 14),
    ("N#Cc1c(N)nc(SCc2csc(-c3ccc(Cl)cc3)n2)c(C#N)c1-c1ccc(OCCO)cc1", 16),
    ("Oc1c(CN2CCN(c3ccccn3)CC2)cc(Cl)c2cccnc12", 7),
    ("CC(C)(C)c1ccc(S(=O)(=O)Nc2ccc(Cl)cc2C(=O)c2cc[n+]([O-])cc2)cc1", 18),
    ("CN1CCN2c3ncccc3Cc3ccccc3C2C1 (stereo unspecified)", 26),
    ("COc1ccc2c(c1)C(C(=O)N(Cc1ccc(N(C)C)cc1)c1ccc(C(C)C)cc1)CCC2.Cl (stereo unspecified)", 18),
    ("CNC[C@H](O)c1ccc(O)c(O)c1 [EPINEPHRINE]", 19),
    ("CSCC[C@H](NC=O)C(=O)N[C@@H](CC(C)C)C(=O)N[C@@H](Cc1ccccc1)C(=O)O", 17),
    ("CSc1ccccc1N1CCN(CCCCCC(=O)NC2CCCc3ccccc32)CC1.Cl (stereo unspecified)", 25),
    ("CCCn1c(=O)c2[nH]c(C3CCCC3)nc2n(CCC)c1=O", 13),
    ("Cc1ccc(-c2ccc(F)cc2COc2ccc(CCC(=O)O)cc2)cc1", 20),
    ("C[C@H](NC(=O)c1c(C(F)F)nn(C)c1Oc1cccc(C(F)(F)F)c1)c1ccc(C(=O)O)cc1", 14),
    ("Cc1ccccc1C(=O)Nc1ccc(C(=O)N2CCCC(N(C)C)c3ccccc32)cc1.Cl (stereo unspecified)", 13),
    ("CCCC(CCC)C(=O)O", 17),
    ("CC(=O)NCCc1c(Cc2ccccc2)[nH]c2ccccc12", 18),
    ("O=C(NCC(=O)N1CC[C@H](N[C@H]2CC[C@@](O)(c3ccc(-c4ncccn4)cn3)CC2)C1)c1cccc(C(F)(F)F)c1", 16),
    ("CCOc1c2c(c(OCC)c3ncccc13)CN(c1ccc(CS(=O)(=O)NC(=O)Cc3ccccc3OC)cc1C)C2=O", 19),
    ("CC[C@H]1OC(=O)[C@H](C)[C@@H](O[C@H]2C[C@@](C)(OC)[C@@H](O)[C@H](C)O2)[C@H](C)[C@@H](O[C@@H]2O[C@H](C)C[C@H](N(C)C)[C@H]2O)[C@@]2(C)CC(C)=C(O2)[C@H](C)[C@@H](O)[C@]1(C)O", 19),
    ("N[C@@]1(C(=O)O)CO[C@H]2[C@H](C(=O)O)[C@H]21", 11),
    ("COc1c(C)cc(NC(=O)c2nn(Cc3ccc(F)cc3)c3c2CN(C(=O)c2ccc[nH]2)C[C@]3(C)C(N)=O)cc1C", 17),
    ("CN(C)CCCc1cc(C(=O)Nc2ccc(-c3ccncc3)cc2)ccc1O.Cl.Cl", 11),
    ("CCNC1(C(N)=O)CCN(c2ncnc3c2nc(-c2ccccc2Cl)n3-c2ccc(Cl)cc2)CC1", 24),
]
